Biological target: TDP43 RRM1 (UniProt Q13148 101-192)
Sequence (Q13148 101-192): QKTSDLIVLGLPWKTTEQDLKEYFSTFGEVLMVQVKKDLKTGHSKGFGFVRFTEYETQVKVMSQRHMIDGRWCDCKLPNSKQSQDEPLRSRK
Experiment: CG-MALS

>  <Binder>
GTGTGTGTGTGTGTGTGTGTGTGT (ssDNA) [(GT)12 ssDNA]

>  <Kd, nM>
1340

$$$$
